Hello, the source for this data is ChEMBL document CHEMBL3351889, in case you need it.

target.or.test.system: UniProt:Q8R455
Sequence (Q8R455 whole entry): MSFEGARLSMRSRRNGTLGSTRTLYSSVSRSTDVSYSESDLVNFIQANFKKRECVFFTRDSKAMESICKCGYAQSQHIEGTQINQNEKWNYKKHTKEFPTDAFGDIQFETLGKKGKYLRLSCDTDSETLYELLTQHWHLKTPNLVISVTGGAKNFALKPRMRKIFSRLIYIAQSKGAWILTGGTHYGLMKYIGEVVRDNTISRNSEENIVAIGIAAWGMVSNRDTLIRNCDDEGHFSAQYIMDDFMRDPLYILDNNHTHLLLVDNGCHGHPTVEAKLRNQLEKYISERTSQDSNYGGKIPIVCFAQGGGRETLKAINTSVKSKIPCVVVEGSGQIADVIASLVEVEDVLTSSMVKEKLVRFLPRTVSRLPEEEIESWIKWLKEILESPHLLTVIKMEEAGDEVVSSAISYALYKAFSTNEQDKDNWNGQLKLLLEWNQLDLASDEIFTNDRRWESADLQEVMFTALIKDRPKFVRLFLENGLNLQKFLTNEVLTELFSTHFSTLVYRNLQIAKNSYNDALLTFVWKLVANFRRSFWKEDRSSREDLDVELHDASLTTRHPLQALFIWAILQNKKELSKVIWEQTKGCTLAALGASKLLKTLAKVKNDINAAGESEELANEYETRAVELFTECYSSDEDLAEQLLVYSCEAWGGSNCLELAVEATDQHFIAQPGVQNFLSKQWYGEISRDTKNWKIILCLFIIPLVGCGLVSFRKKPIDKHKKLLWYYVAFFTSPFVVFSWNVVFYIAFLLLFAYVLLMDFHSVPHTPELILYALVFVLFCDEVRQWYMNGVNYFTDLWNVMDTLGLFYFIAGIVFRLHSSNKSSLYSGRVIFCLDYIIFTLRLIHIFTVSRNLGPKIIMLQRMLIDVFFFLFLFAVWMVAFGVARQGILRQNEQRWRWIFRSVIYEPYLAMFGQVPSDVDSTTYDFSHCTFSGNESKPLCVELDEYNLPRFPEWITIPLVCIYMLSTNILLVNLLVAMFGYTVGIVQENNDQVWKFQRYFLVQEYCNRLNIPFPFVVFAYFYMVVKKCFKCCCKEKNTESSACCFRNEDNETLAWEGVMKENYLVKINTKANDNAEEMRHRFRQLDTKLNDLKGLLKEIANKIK
assay.details: Antagonist activity at rat TRPM8 assessed as inhibition of menthol induced Ca2+ influx by cell-based assay
pIC50: −log10 of the molar value.
quantity.kind: pIC50

INSERT INTO measurements (input_smiles, quantity_kind, assay_value) VALUES
  ('O=C(O)c1ccc(S(=O)(=O)N(Cc2ccc(C(F)(F)F)cc2)c2ncc(Cl)cc2Cl)cc1', 'pIC50', 8.05),
  ('O=C(O)c1ccc(S(=O)(=O)N(Cc2ccc(OC(F)(F)F)cc2)c2ncc(C(F)(F)F)cc2Cl)cc1', 'pIC50', 8.24);

----------
target.or.test.system: Transient receptor potential cation channel subfamily A member 1 (Rattus norvegicus)
Sequence (Q6RI86 whole entry): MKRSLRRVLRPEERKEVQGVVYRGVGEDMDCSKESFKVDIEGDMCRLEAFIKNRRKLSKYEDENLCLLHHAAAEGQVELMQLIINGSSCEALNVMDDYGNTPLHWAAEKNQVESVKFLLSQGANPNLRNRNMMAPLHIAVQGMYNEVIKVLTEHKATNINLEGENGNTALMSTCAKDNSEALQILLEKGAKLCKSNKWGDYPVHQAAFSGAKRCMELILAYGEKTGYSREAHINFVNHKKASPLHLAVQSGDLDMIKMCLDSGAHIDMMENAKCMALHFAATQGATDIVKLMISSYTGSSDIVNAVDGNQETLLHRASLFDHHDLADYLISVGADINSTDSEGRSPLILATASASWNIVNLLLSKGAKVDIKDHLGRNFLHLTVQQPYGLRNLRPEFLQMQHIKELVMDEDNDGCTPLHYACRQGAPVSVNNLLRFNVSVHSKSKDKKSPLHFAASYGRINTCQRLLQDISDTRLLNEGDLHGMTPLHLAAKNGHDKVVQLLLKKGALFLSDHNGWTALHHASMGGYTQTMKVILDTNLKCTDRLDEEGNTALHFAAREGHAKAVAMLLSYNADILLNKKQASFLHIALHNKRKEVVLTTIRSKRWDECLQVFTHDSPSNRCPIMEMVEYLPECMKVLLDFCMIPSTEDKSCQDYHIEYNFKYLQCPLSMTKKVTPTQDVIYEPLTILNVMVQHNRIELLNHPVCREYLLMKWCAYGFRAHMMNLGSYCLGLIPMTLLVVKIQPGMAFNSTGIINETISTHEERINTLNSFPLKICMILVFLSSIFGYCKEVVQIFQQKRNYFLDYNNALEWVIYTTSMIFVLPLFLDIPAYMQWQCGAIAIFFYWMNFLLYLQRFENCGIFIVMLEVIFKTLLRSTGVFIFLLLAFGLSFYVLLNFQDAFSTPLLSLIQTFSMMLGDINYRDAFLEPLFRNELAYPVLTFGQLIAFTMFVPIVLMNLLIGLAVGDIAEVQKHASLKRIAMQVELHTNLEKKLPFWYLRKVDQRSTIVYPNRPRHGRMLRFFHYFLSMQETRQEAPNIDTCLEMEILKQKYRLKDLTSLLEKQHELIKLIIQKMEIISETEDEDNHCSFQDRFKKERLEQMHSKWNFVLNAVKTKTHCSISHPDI
assay.details: Antagonist activity at rat TRPA1 expressed in HEK293 cells assessed as inhibition of AITC-induced Ca2+ influx
quantity.kind: IC50

Which IC50 is listed for O=C(O)c1ccc(S(=O)(=O)N(Cc2ccc(OC(F)(F)F)cc2)c2ncc(C(F)(F)F)cc2Cl)cc1 ? > 10 µM
